molecular target: T1, human LAG-3 ECD/Fc fusion protein (human); test: FACS RBA, huLAG-3 ECD/Fc on Raji; competitor MHC Class II
T1 construct: also called HuLAG-3 ECD/Fc
T1 sequence (chain, as listed by the source limits assumed): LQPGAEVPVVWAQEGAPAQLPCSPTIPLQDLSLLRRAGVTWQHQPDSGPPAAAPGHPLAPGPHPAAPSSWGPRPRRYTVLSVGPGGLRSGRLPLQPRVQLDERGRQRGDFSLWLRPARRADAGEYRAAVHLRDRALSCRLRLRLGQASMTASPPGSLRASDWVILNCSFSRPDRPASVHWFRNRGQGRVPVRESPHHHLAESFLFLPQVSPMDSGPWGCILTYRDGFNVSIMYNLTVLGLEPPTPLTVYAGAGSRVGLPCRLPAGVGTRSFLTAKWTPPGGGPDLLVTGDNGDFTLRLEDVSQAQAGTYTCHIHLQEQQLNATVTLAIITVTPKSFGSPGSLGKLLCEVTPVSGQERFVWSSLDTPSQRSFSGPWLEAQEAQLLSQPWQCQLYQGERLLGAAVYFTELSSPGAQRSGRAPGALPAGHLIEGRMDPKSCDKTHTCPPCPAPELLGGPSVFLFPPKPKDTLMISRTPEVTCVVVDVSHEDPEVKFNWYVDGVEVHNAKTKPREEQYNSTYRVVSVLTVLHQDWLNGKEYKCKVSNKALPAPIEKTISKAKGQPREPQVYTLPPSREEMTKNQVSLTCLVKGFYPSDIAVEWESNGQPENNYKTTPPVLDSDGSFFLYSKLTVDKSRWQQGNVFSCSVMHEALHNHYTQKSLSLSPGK
Below: a set of entries, each annotated with reported IC50.
Value expressed in nM; do not type the unit.

Below are worked cases with known answers.
- mAb747 (antibody, V domains shown, murine hybridoma anti-LAG-3 mAb; also called 3502-mAb747) VH: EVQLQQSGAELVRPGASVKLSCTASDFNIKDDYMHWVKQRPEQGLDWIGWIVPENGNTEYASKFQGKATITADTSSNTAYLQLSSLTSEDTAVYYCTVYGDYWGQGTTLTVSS VL: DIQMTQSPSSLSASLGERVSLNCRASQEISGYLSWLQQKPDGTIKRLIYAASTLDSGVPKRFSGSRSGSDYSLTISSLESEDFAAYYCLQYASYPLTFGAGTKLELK: 2.84
- mAb742 (antibody, V domains shown, murine hybridoma anti-LAG-3 mAb) VH: QGQLQQSGAELVRPGASVTLSCKASGYTFNDYEMHWVKQTPVHGLEWIGAIDPETGGTAYNQKFKGKAILTADKSSSTAYMELRSLTSEDSAVYYCIRWGSTVFPYWGQGTLVTVS VL: DGVLTQTPLSLPVNIGDQASISCKSTKSLLNSDGFTYLDWYLQKPGQSPQLLIYLVSNRFSGVPDRFSGSGSGTDFTLKISRVEAEDLGVYYCFQSNYLPWTFGGGTKLEIK: 3.84
- mAb749 (antibody, V domains shown, murine hybridoma anti-LAG-3 mAb) VH: EVQLQQSGAELVRPGASVKVSCTASDFNIKDDYVHWVKQRPEQGLEWIGWIDPENGDTEYASKFQGKATITADTSSNTAYLQLSSLTSEDTAVYFCSTWDAEENYWGQGTTLSVSS VL: DIVLTQAAPSVPVTPGESVSISCRSSKSLLHSNGNTYLYWFLQRPGQSPQVLIYRMSNLASGVPVRFSGSGSGTAFTLRISRVEAEDVGVYYCMQHLEYPFTFGSGTKLEIK: 4.73

Let us examine a further case.
query: Sample mAb746 (antibody, V domains shown, murine hybridoma anti-LAG-3 mAb; also called rnAb746; 3502-mAb746) VH: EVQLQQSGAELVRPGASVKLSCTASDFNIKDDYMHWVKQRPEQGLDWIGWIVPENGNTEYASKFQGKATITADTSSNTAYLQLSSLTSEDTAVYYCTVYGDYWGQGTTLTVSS VL: DIQMTQSPSSLSASLGERVSLNCRASQEISGYLSWLQQKSDGTIKRLIYAASTLDSGVPKRFSGSRSGSDYSLTISSLESEDFADYYCLQYASYPLTFGAGTKLELK — what was its IC50?
result: 2.92
